B1: PTPN9 (parent)
chain: NKWTVQYNVSPLSWNVAVKFLMAR

Variants of: B1
experiment_notes: protein stability index of a GFP-peptide fusion (GPS, HEK-293T) (PSI 1-6); higher = more stable;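 note: lentivirally expressed fusions sorted by FACS into six bins by GFP to DsRed ratio, PSI derived from sequencing read proportions per bin multiplied by bin number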
test_conditions: c terminus: a fixed tail appended
recorded_metric: protein stability index
Just the number, please, no unit after it.

{"mutant_designation": "V16E", "protein stability index": 2.65}

// switching to the query variant
Looking up `F20R` , I found its protein stability index recorded as 3.62

Just for reference, the supplement of paper PMC10567573 is where these values come from.
